Target: Sentrin-specific protease 8 (Homo sapiens);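 further: luminescence read-out of SENP8 inhibition, dose-response confirmation following an ultra-high-throughput screen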
Sequence (Q96LD8 whole entry): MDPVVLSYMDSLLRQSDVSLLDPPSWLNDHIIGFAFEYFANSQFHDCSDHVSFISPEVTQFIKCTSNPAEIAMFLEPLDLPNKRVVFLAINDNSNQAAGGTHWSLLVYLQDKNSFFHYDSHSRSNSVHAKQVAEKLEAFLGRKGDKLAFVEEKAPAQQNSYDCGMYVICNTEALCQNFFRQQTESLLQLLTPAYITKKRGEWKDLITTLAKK
Type: functional
Calls of active or inactive are those of the source.
Reported IC50 values for a set of molecules

Study these solved cases before continuing.
> print(dat)
                            entry.smiles                         system.under.test       endpoint.value
1       O=C(Nc1nc2ccccc2[nH]1)Nc1ccccc1F  Sentrin-specific protease 8 (Homo sapiens)     14.5 µM (active)
2     Cc1ccc(OCc2nc(-c3ccccc3)no2)c(C)c1  Sentrin-specific protease 8 (Homo sapiens)       62 µM (active)
3  Cc1ccc(O)c(NC(=O)c2cc(-c3ccco3)on2)c1  Sentrin-specific protease 8 (Homo sapiens)  > 100 µM (inactive)

Problem: Reported IC50, molecule COc1cc(NC(=O)COC(=O)c2ccc([N+](=O)[O-])s2)cc(OC)c1OC : ____
Solution: 3.88 µM (active)

Problem: Also, Cc1ccc(NC(=O)COc2cccc(/C=C3\SC(=S)N(CCC(=O)O)C3=O)c2)cc1Cl please.
Solution: 3.14 µM (active)

Problem: Also, Cc1cc(C)n(CCc2nc(-c3ccc(-c4ccccc4)cc3)cs2)n1 please.
Solution: 59.3 µM (active)

###

Experiment: Luminescence Cell-Based Dose Response HTS to Identify Inhibitors of 5'UTR Stem-Loop Driven Prion Protein mRNA Translation in H4 Neuroglioblastoma Cells. [Related pubchem assays: 1827 (Project Summary), 1813 (Primary HTS)]
Assay type: functional
Activity calls are given as the source filed them.
Reported EC50 values for a set of molecules

Study these solved cases before continuing.
> print(dat)
                                   molecule  recorded.endpoint         endpoint.value
1  Cc1ccc(C(=O)NNC(=O)CCCN2C(=O)/C(=C/c3ccccc3Cl)SC2=S)cc1               EC50  > 120 µM (not active)
2         O=C(O)c1cccc(COc2ccc3c(c2)CCC3)c1               EC50      < 0.1 µM (active)
3  CC/C(=N\CCc1c(C)[nH]c2ccc(OC(F)(F)F)cc12)C1=C(O)CC(c2ccccc2)CC1=O (stereo not given)               EC50       16.8 µM (active)
4  CN1C=C/C(=C\c2cc[n+](C)c3ccccc23)c2ccccc21               EC50       8.89 µM (active)

Problem: Reported EC50, molecule Cc1nc2ncnn2c(Nc2ccc3c(c2)OCO3)c1Cc1ccccc1 : ____
Solution: > 120 µM (not active)

###

Reported AC50 values for a set of molecules
Assay: ZM109 Env clade C HIV-1 fusion inhibitors, dose response, HeLa effector, CEM target cells, luciferase, cherry-pick (AID 652058)
Type: functional, cell-based
The source made the active and inactive calls.

Study these solved cases before continuing.
> print(dat)
                                   molecule    endpoint.value
1  CN1CC(c2ccc(Cl)c(Cl)c2)[C@@]2(COc3ccccc3C2=O)[C@@]12C(=O)Nc1ccccc12 (stereo partly specified)   9.1 µM (active)
2  CC(C)NC(=O)Nc1ccc2c(c1)C(=O)N([C@@H](C)CO)C[C@H](C)[C@H](CN(C)C(=O)Nc1ccc(F)cc1)O2  22.4 µM (active)
3  CCN(CC)c1nc(Nc2ccccc2)nc(Oc2ccc(O)nn2)n1  9.89 µM (active)
4  CC(NC(=O)CN(C)CC(=O)Nc1ccc(Cl)c(C(F)(F)F)c1)c1ccccc1 (stereo unspecified)  8.39 µM (active)
5  C=C1CCN([C@@H](CC(C)C)C(=O)Nc2ccc(OC)cc2)S(=O)(=O)c2ccccc21  2.47 µM (active)

Problem: Reported AC50, molecule CCOC(=O)C1CCCN(Cc2nc(N)nc(Nc3ccc(OC)cc3)n2)C1 (stereo unspecified) : ____
Solution: 4.93 µM (active)

###

Reported AC50 values for a set of compounds
Assay: inhibitors of clade B AD8 Env fusion, dose response, cell-based, cherry-pick (AID 652062);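 further: luciferase signal from cell-cell fusion driven by HIV-1 clade B AD8 Env; potency is for inhibitors of fusion seen as a drop in luminescence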
Type: functional
Active and inactive are the calls of the source.

> print(dat)
                               entry.smiles  endpoint.value
1  CC(C)CC#Cc1ccc2c(c1)O[C@@H](CN(C)Cc1ccccn1)[C@H](C)CN([C@H](C)CO)S2(=O)=O  26 µM (active)

Problem: Reported AC50, compound CCN(CC)c1nc(Nc2ccccc2)nc(Oc2ccc(O)nn2)n1 : ____
Solution: 9.57 µM (active)

Problem: Also, COc1ccc(CNC(=O)N(C)C[C@H]2OCc3ccccc3-c3c(n(C)c4ccccc34)C(=O)N([C@H](C)CO)C[C@@H]2C)cc1 please.
Solution: < 0.26 µM (active)

Problem: Also, C[C@@H]1CN([C@@H](C)CO)C(=O)Cc2cc(NS(=O)(=O)c3ccccc3)ccc2O[C@H]1CN(C)Cc1ccc(Cl)c(Cl)c1 please.
Solution: 1.19 µM (active)

Problem: Also, Cc1c(CCOC(=O)C23CC4CC(CC(C)(C4)C2)C3)sc[n+]1CC(=O)c1ccccc1 please.
Solution: 8.8 µM (active)

###

Target: High affinity choline transporter 1 (Homo sapiens, UniProt Q9GZV3)
Sequence (Q9GZV3 whole entry): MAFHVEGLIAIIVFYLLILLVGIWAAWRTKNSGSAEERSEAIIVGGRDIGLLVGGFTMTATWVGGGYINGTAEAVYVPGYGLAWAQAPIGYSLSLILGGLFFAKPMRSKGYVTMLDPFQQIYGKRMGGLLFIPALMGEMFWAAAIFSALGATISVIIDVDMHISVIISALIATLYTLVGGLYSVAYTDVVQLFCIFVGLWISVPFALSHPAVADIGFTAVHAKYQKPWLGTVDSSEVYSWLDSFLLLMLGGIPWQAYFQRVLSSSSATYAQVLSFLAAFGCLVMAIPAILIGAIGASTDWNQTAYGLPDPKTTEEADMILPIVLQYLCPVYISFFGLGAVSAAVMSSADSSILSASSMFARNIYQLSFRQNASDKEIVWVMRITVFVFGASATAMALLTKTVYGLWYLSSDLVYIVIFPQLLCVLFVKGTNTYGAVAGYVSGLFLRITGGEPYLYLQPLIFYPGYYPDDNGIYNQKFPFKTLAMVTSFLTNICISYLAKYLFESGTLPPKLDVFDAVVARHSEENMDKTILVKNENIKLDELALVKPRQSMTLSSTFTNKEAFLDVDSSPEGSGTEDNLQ
Assay: CHT inhibitors, dose response, cell-based, 5-point CRC, membrane potential dye (AID 504840)
Format: functional
The source made the active and inactive calls.
recorded.endpoint: IC50

> print(dat)
                                   molecule  recorded.endpoint    endpoint.value
1  CC(C)(C)C(=O)NC(=S)NNC(=O)C(c1ccccc1)c1ccccc1               IC50  6.48 µM (active)
2  CCN(CC)CCCNC(=O)c1cc(-c2ccc(Cl)c(Cl)c2)on1               IC50  12.9 µM (active)
3  O=C(Nc1ccc(S(=O)(=O)Nc2cnc3ccccc3n2)cc1)c1cc(F)c(F)cc1Cl               IC50  12.1 µM (active)

Problem: Reported IC50, molecule O=C(NC1CCCCC1)c1ccc(OC2CCN(Cc3ccccn3)CC2)cc1 : ____
Solution: 1.65 µM (active)

Problem: Also, Cc1ccc(C[S+]([O-])Cc2ccc(C(=O)NC3CCC(C)CC3)o2)cc1 (stereo not given) please.
Solution: 13.8 µM (active)

###

System: SN12K1
Assay: cells
Assay type: functional
Details: Homo sapiens
Counter-ions that a name gives are not always drawn. The source made the active and inactive calls.
Tick one outcome: active, inactive

> print(dat)
                                   molecule  label.class
1  CCN1CC2(CO)CCC(OC)C34C5CC6C(OC)CC(O)(C5C6OC)C(O)(C(OC)C23)C14 (stereo not given)     inactive
2  O=C(O)CCC(NC(=O)c1ccc(Nc2nc3ccc(C(F)(F)F)cc3nc2-c2ccccc2)cc1)C(=O)O (stereo not given)     inactive
3  O[C@H]1[C@H](O)[C@@H](O)CN2CC[C@H](O)[C@H]12     inactive

Problem: Name the outcome recorded for O=CNc1cccc2c3c([nH]c12)CCCCCC3 in the assay.
Solution: inactive

Problem: Also, O=C1c2c(O)ccc(O)c2C(=O)c2c(NCCNCCO)ccc(NCCNCCO)c21 [MITOXANTRONE HYDROCHLORIDE] please.
Solution: active

###

Biological target: Zinc finger protein mex-5 (Caenorhabditis elegans)
Sequence (Q9XUB2 whole entry): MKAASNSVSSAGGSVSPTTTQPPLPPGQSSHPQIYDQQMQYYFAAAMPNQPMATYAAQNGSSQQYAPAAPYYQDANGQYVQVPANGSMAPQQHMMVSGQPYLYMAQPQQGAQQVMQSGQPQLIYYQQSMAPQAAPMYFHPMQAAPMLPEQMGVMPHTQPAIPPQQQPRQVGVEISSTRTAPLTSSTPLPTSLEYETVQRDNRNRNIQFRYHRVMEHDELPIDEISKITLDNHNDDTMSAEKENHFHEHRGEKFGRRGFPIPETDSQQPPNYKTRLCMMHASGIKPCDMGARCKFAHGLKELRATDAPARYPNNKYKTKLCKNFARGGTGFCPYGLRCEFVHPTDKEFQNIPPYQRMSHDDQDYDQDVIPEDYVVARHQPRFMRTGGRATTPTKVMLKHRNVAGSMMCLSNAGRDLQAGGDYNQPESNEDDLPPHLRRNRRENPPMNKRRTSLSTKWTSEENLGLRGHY
Assay: MEX-5/TCR-2 RNA interaction inhibitors, dose response, biochemical, C. elegans, fluorescence polarization (AID 1960)
Calls of active or inactive are those of the source.
Reported EC50 values for a set of compounds

> print(dat)
                                   compound         endpoint.value
1  COC(=O)CCCC1=CC2=CC(=O)C(C)(OC(=O)c3ccc(Cl)nc3)C(=O)C2=CO1 (stereo not given)       18.8 µM (active)
2  COc1ccc(C(=O)/N=c2\c(C#N)cc3c(=O)n4cccc(C)c4nc3n2Cc2ccco2)cc1  > 300 µM (not active)
3  O=C1NC(=O)N(CCc2ccccc2)C(=O)/C1=C/NNC(=O)c1ccccc1  > 150 µM (not active)
4  CN1C=C/C(=C\c2cc[n+](C)c3ccccc23)c2ccccc21   40 µM (inconclusive)

Problem: Reported EC50, compound CCN(CC)c1ccc(/C=c2/sc3nnc(-c4ccccc4C)n3c2=O)cc1 : ____
Solution: > 300 µM (inconclusive)
